# experimentalProtocol: 28-day oral toxicity study with non-enteric coated HT-2157, dog
# Format: in vivo
# runConditions: female, plasma, 50 mg/kg/day, female dog, at NOEL, day 28 of dosing, read-out: AUC0-24 of HT-2157 in plasma
measurementLabel: AUC(0-t) (ng·h/mL)
Record the value in ng·h/mL, omitting the unit from your answer.

Prompt line: Any idea what its AUC(0-t) is? The molecule is O=C1C(=Nc2cccc(C(F)(F)F)c2)c2ccccc2N1c1ccccc1
Response line: 799

====

# experimentalProtocol: in vivo
# runConditions: female, rat, po, 30 mg/kg/day, AUC0-24 of HT-2157 in plasma
# Protocol: Consequently, separate toxicokinetic studies directed to […] (without an enteric coating) were performed in rat and in dog, which is considered the more sensitive species. […] In these studies, the non-toxic dose level for oral administration of HT-2157 over 28 days was 30 mg/kg/day for female rats, 100 mg/kg/day for male rats and 50 mg/kg/day for dogs (both sexes). Table 1 lists the mean Cmax and AUC values of HT-2157 in the plasma associated with these dosages: […]
measurementLabel: AUC(0-t) (ng·h/mL)
Record the value in ng·h/mL, omitting the unit from your answer.

Prompt line: Any idea what its AUC(0-t) is? The compound is O=C1C(=Nc2cccc(C(F)(F)F)c2)c2ccccc2N1c1ccccc1 [HT-2157]
Response line: 283

====

# experimentalProtocol: in vivo
# runConditions: male, rat, po, 100 mg/kg/day, Cmax of HT-2157 in plasma
measurementLabel: Cmax

Prompt line: Any idea what its Cmax is? The compound is O=C1C(=Nc2cccc(C(F)(F)F)c2)c2ccccc2N1c1ccccc1
Response line: 252 ng/mL

====

# experimentalProtocol: in vivo
# runConditions: female, rat, po, 30 mg/kg/day, Cmax of HT-2157 in plasma
measurementLabel: Cmax (ng/mL)
Record the value in ng/mL, omitting the unit from your answer.

Prompt line: Any idea what its Cmax is? The molecule is O=C1C(=Nc2cccc(C(F)(F)F)c2)c2ccccc2N1c1ccccc1 [HT-2157]
Response line: 109

====

# experimentalProtocol: in vivo
# runConditions: male, rat, po, 100 mg/kg/day, AUC0-24 of HT-2157 in plasma
measurementLabel: AUC(0-t) (ng·h/mL)
Record the value in ng·h/mL, omitting the unit from your answer.

Prompt line: Any idea what its AUC(0-t) is? The compound is O=C1C(=Nc2cccc(C(F)(F)F)c2)c2ccccc2N1c1ccccc1 [HT-2157]
Response line: 1380

====

# experimentalProtocol: 28-day oral toxicity study with non-enteric coated HT-2157, dog
# Type: in vivo
# runConditions: male, plasma, 50 mg/kg/day, male dog, at NOEL, day 1 of dosing, read-out: AUC0-24 of HT-2157 in plasma
measurementLabel: AUC(0-t) (ng·h/mL)
Record the value in ng·h/mL, omitting the unit from your answer.

Prompt line: Any idea what its AUC(0-t) is? The compound is O=C1C(=Nc2cccc(C(F)(F)F)c2)c2ccccc2N1c1ccccc1 [HT-2157]
Response line: 676

The reported numbers originate from patent US8277842B1.
